Provide the reported protein stability index of each item.
B1: KLHL12 (parent)
chain: SMTTPRCYVGATVLRGRLYAIAGY

# Variants of: B1
# assay details: protein stability index of a GFP-peptide fusion (GPS, HEK-293T) (PSI 1-6); higher = more stable;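 also: lentivirally expressed fusions sorted by FACS into six bins by GFP to DsRed ratio, PSI derived from sequencing read proportions per bin multiplied by bin number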
# measurement setup: c terminus: a fixed tail appended
Number only, no unit.

# protein stability index (variant: G23R ) is 1.97

# protein stability index (variant: R17C ) is 2.04

# protein stability index (variant: L18E ) is 1.95

# protein stability index (variant: T3M ) is 1.99
